Please provide measured Total Cell Count for the entries that follow.
- Tested on: HEK-293T
- Procedure details: Multiplex assay against HEK293T
- Type: toxicity, cell-based
- Experimental setup: human, 24 h, 1 µM, compound concentration 1 uM, replicate 2
Numbers only.

Observe how each entry below is paired with its result.
INSERT INTO results (compound, experimental_value) VALUES
  ('CN1C[C@H](C(=O)N[C@]2(C)O[C@@]3(O)[C@@H]4CCCN4C(=O)[C@H](Cc4ccccc4)N3C2=O)C[C@@H]2c3cccc4[nH]cc(c34)C[C@H]21.CS(=O)(=O)O [DIHYDROERGOTAMINE MESYLATE]', 341),
  ('C=CCN1C[C@H](C(=O)N(CCCN(C)C)C(=O)NCC)C[C@@H]2c3cccc4[nH]cc(c34)C[C@H]21 [CABERGOLINE]', 406);

Shift focus to the following entry.
Reported Total Cell Count of "CCc1nn2c(C)cc(C)nc2c1Cc1ccc(-c2nnc(C3CCNCC3)o2)cc1" : 542

====

- Tested on: Fibroblast
- Procedure details: Multiplex assay against human fibroblast
- Type: toxicity, cell-based
- Experimental setup: 12 h, 1 µM, compound concentration 1 uM, replicate 2
Please provide measured Population Normal (%) for the entries that follow.
One number for each entry, in %.

INSERT INTO measurements (molecule, measured_parameter, measure_unit, experimental_value) VALUES
  ('O=c1nc2[nH]c3ccccc3nc-2c(=O)[nH]1', 'Population Normal (%)', '%', 96),
  ('Cc1ccc(OCC(O)C(C)NC(C)C)c2c1CCC2.Cl (stereo not given)', 'Population Normal (%)', '%', 90),
  ('Cl.Cl.OCCOCCN1CCN(C(c2ccccc2)c2ccc(Cl)cc2)CC1 (stereo not given) [HYDROXYZINE HYDROCHLORIDE]', 'Population Normal (%)', '%', 92),
  ('C[C@H](NC(=O)CNC(=O)c1cccc(Cl)c1)c1ccccc1', 'Population Normal (%)', '%', 96);

Shift focus to the following entry.
Reported Population Normal (%) of "COc1cc(OC2CCN(C(C)=O)CC2)ccc1C(=O)N1CCC(N2C(=O)OCc3ccccc32)CC1" : 96

====

Please provide measured Population Normal (%) for the entries that follow.
- System: HEK-293T
- Procedure details: Multiplex assay against HEK293T
- Type: toxicity, cell-based
- Experimental setup: human, 24 h, 10 µM, compound concentration 10 uM, replicate 2
One number for each entry, in %.

Observe how each entry below is paired with its result.
INSERT INTO assay_data (compound, system_tested, experimental_value) VALUES
  ('O=C(NCCNCC(O)COc1ccc(O)cc1)N1CCOCC1.O=C(NCCNCC(O)COc1ccc(O)cc1)N1CCOCC1.O=C(O)/C=C/C(=O)O (centres undefined) [XAMOTEROL FUMARATE]', 'HEK-293T', 95),
  ('CSc1nc(NC2CCCC2)c([N+](=O)[O-])c(NC2CCCC2)n1 [GS-39783]', 'HEK-293T', 93),
  ('COc1ccc2[nH]c(I)c(CCNC(C)=O)c2c1 [IODOMELATONIN]', 'HEK-293T', 90),
  ('CCc1nn2c(C)cc(C)nc2c1Cc1ccc(-c2nnc(C3CCNCC3)o2)cc1', 'HEK-293T', 92);

For every item below, please supply its Population Normal (%).
1. O=c1ccc2ccc(OCCCCN3CCN(c4cccc5sccc45)CC3)cc2[nH]1 [BREXPIPRAZOLE]
2. Cc1nn(C)c2nc(NNC(=O)Nc3cc(Cl)nc(Cl)c3)cc(C(C)C)c12
3. CC(C)(O)C(=O)N1CCN(c2ccc(C(F)(F)F)c(C3=C(c4c[nH]c5ccccc45)C(=O)NC3=O)c2)CC1
4. COc1cc(Nc2ncc3c(n2)-c2ccc(Cl)cc2C(c2c(F)cccc2OC)=NC3)ccc1C(=O)O [ALISERTIB]
5. COCCn1c(C)c(C)s/c1=N\C(=O)C1C(C)(C)C1(C)C

1: 53; 2: 95; 3: 92; 4: 65; 5: 92

====

- Test system: Fibroblast
- Procedure details: Multiplex assay against human fibroblast
- Format: toxicity, cell-based
- Experimental setup: 48 h, 1 µM, compound concentration 1 uM, replicate 1
Measured parameter: Population Hoechst High Intensity Objects (%)
Numbers only, in %.

Observe how each entry below is paired with its result.
INSERT INTO assay_data (compound, measure_unit, experimental_value) VALUES
  ('O=c1nc2[nH]c3ccccc3nc-2c(=O)[nH]1', '%', 9),
  ('CCn1c(-c2nc3cc(C(=O)N4CCCC(N)C4)ccc3n2C)cc2ccccc21.Cl (centres undefined)', '%', 2),
  ('CC(C)(O)C(=O)N1CCN(c2ccc(C(F)(F)F)c(C3=C(c4c[nH]c5ccccc45)C(=O)NC3=O)c2)CC1', '%', 5);

For every item below, please supply its Population Hoechst High Intensity Objects (%).
1. CN(C)C/C=C/C(=O)Nc1ccc(C(=O)N2CCCC(Nc3ncc(Cl)c(-c4c[nH]c5ccccc45)n3)C2)cc1 (centres undefined)
2. Cc1ccc(OCC(O)C(C)NC(C)C)c2c1CCC2.Cl (centres undefined)
3. COCCCN1CCC(NC(=O)c2cc(Cl)c(N)c3c2OCC3)CC1 [PRUCALOPRIDE]

1: 10; 2: 4; 3: 4

For every item below, please supply its Population Hoechst High Intensity Objects (%).
1. CCc1nn2c(C)cc(C)nc2c1Cc1ccc(-c2nnc(C3CCNCC3)o2)cc1
2. COc1ccc2c(c1OCc1ccccc1)C[C@@H](C(=O)O)N(C(=O)C(c1ccccc1)c1ccccc1)C2
3. Cc1c(Cc2ccc3ccccc3n2)c2cc(F)ccc2n1CC(=O)O

[4, 3, 7]

====

Please provide measured Population Normal (%) for the entries that follow.
- Tested on: Fibroblast
- Procedure details: Multiplex assay against human fibroblast
- Type: toxicity, cell-based
- Experimental setup: 24 h, 10 µM, compound concentration 10 uM, replicate 1
Give bare numbers, in %.

Observe how each entry below is paired with its result.
INSERT INTO measurements (molecule, measure_unit, experimental_value) VALUES
  ('C[C@@H]1CC(=O)Nc2cccc(-c3ccc4c(c3)c(-c3cnn(C)c3)nn4C)c2N1', '%', 89),
  ('CN(C)C/C=C/C(=O)Nc1ccc(C(=O)N2CCCC(Nc3ncc(Cl)c(-c4c[nH]c5ccccc45)n3)C2)cc1 (stereo not drawn)', '%', 97);

Reported Population Normal (%) of "CC(C)(C)c1ccc(CSc2cnn(C(C)(C)C)c(=O)c2Cl)cc1" : 97

====

Please provide measured Population Hoechst High Intensity Objects (%) for the entries that follow.
- Test system: HEK-293T
- Procedure details: Multiplex assay against HEK293T
- Assay type: toxicity, cell-based
- Experimental setup: human, 24 h, 10 µM, compound concentration 10 uM, replicate 1
Give bare numbers, in %.

INSERT INTO measurements (molecule, experimental_value) VALUES
  ('COc1cc(Nc2ncc3c(n2)-c2ccc(Cl)cc2C(c2c(F)cccc2OC)=NC3)ccc1C(=O)O [ALISERTIB]', 6),
  ('COC(c1ccccc1)(c1ccccc1)[C@H](Oc1nc(C)cc(C)n1)C(=O)O [AMBRISENTAN]', 4),
  ('CN1C[C@H](C(=O)N[C@]2(C)O[C@@]3(O)[C@@H]4CCCN4C(=O)[C@H](Cc4ccccc4)N3C2=O)C[C@@H]2c3cccc4[nH]cc(c34)C[C@H]21.CS(=O)(=O)O [DIHYDROERGOTAMINE MESYLATE]', 5),
  ('C=CCN1C[C@H](C(=O)N(CCCN(C)C)C(=O)NCC)C[C@@H]2c3cccc4[nH]cc(c34)C[C@H]21 [CABERGOLINE]', 8),
  ('Cl.Cl.OCCOCCN1CCN(C(c2ccccc2)c2ccc(Cl)cc2)CC1 (configuration not stated) [HYDROXYZINE HYDROCHLORIDE]', 8);

For every item below, please supply its Population Hoechst High Intensity Objects (%).
1. COCCn1c(C)c(C)s/c1=N\C(=O)C1C(C)(C)C1(C)C
2. Cc1cc(NC(=O)NCCN2CCC(O)(Cc3ccccc3)CC2)c2ccccc2n1 [PALOSURAN]

15
4

====

- System: U2OS
- Procedure details: Multiplex assay against U2OS
- Type: toxicity, cell-based
- Experimental setup: human, 48 h, 1 µM, compound concentration 1 uM, replicate 2
Measured parameter: Population Healthy Nuclei (%)

Observe how each entry below is paired with its result.
INSERT INTO results (compound, experimental_value) VALUES
  ('CCc1nn2c(C)cc(C)nc2c1Cc1ccc(-c2nnc(C3CCNCC3)o2)cc1', '72%'),
  ('Cc1nn(C)c2nc(NNC(=O)Nc3cc(Cl)nc(Cl)c3)cc(C(C)C)c12', '65%'),
  ('CCn1c(-c2nc3cc(C(=O)N4CCCC(N)C4)ccc3n2C)cc2ccccc21.Cl (centres undefined)', '70%'),
  ('CN1CCN(c2ccc(Nc3c4ccccc4nc4ccccc34)cc2)CC1.Cl.Cl.O', '47%'),
  ('O=c1ccc2ccc(OCCCCN3CCN(c4cccc5sccc45)CC3)cc2[nH]1', '56%'),
  ('CC(C)C[C@H](CO)Nc1nc(S[C@@H](C)c2ccccc2)nc2nc(N)sc12', '77%'),
  ('COc1cc(OC2CCN(C(C)=O)CC2)ccc1C(=O)N1CCC(N2C(=O)OCc3ccccc32)CC1', '66%'),
  ('CN(C)C(=O)Cn1cc(-c2ccc(-c3nnc4ccccn34)cc2)cn1', '67%');

Reported Population Healthy Nuclei (%) of "CCCCC[C@H](O)/C=C/[C@H]1[C@H](O)CC(=O)[C@@H]1CCCCCCC(=O)O" : 71%
